- protocol.notes: binders of r(CAG) RNA repeats, primary screen, biochemical, fluorescence (AID 651821);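 further: 0% = DMSO alone and 100% = 100 µM mitoxantrone as full dye displacement; higher means more dye released from RNA so lower well fluorescence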
- assay.setup: r(CAG) RNA repeat, TO-PRO-1 dye displacement fluorescence; at 3 µM
Out of some 370,000 compounds screened, about 4,700 (1.3%) were called active.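 How the source made its calls: active means inhibition above the plate cutoff, the mean of all test compounds on that plate plus 3 SD (cut at about 35% in these data); inactive means the rest.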 The entries come from a sample that favours actives as a whole.
Log the outcome using a class from 1 for active, -1 for inactive

Query: For COC(=O)C12C=C3CC(c4ccccc4)=C3C(=O)N1Cc1[nH]c3ccccc3c1C2 (stereo not given) , what call appears in the results of this test?
Reply: -1

Query: Write down the call the test reported for this compound. Item: `O=C(CSc1nnc(SCc2ccc(F)cc2)s1)Nc1ccc(C(=O)O)cc1`
Reply: -1

Query: Recorded call for `Cc1ccc(C)c(NC(=O)CCS(=O)(=O)c2ccccc2)c1` ?
Reply: -1

Query: Test call for this compound, please: COC(=O)c1cc(S(=O)(=O)N2CCN(C(=O)C3CCCO3)CC2)cn1C (stereo not given)
Reply: -1

Query: Returns: the outcome recorded for `Cc1cccc(NC(=O)C[C@H]2CC[C@H]3[C@@H](COc4ccc(NC(=O)Nc5ccccc5)cc4C(=O)N3C)O2)c1` in this assay.
Reply: -1

Query: For `CCn1c(SCC(=O)Nc2ccc(S(=O)(=O)Nc3onc(C)c3C)cc2)nnc1-c1ccccc1` , which call appears in the assay record?
Reply: 1

Query: Field: outcome | Entry: `Cc1cc(NS(=O)(=O)c2ccc(NC(=O)CSc3nnc(SCc4ccc(F)cc4)s3)cc2)nc(C)n1`
Reply: 1

Query: # fetch the recorded call for `Cc1cc(NS(=O)(=O)c2ccc(NC(=O)CSc3nnc(-c4ccc(C(C)(C)C)cc4)n3Cc3ccco3)cc2)nc(C)n1` here
Reply: 1

Query: State the result this test recorded for `COc1cccc(CN(C)CC(=O)Nc2sc3c(c2C#N)CCC3)c1` .
Reply: -1

Query: Which outcome was entered for the compound `NNc1cccc(C=Cc2ccccc2)cc1=O` in this test?
Reply: 1

Query: Given `N#Cc1ccc(OC[C@@H](O)CN2CCC(C(O)(c3ccccc3)c3ccccc3)CC2)c(F)c1` , state the outcome it received in this test.
Reply: -1

Query: Call for entry `CC(=O)Nc1ccc(S(=O)(=O)NCCc2ccccc2)cc1` :
Reply: -1

Query: Call for entry `N#CCC(=O)Nc1ccc(C(=O)OCC(=O)Nc2sc3c(c2C#N)CCCC3)cc1` :
Reply: 1

Query: What outcome does the record of this test show for `Cc1ccc(N(CCC(=O)O)S(=O)(=O)c2cccc(C(F)(F)F)c2)cc1` ?
Reply: -1

Query: Call for entry `Cc1ccc(-c2nnc(SCC(=O)Nc3ccc(Oc4ccccc4)cc3)n2Cc2ccco2)cc1` :
Reply: -1

Query: What is the recorded call for this compound in the test? CCOC(=O)c1csc(NC(=O)C2CCCN(S(=O)(=O)c3ccc(Cl)s3)C2)n1 (stereo not given)
Reply: -1

Query: Assay result, entry `CCCNC(=O)Nc1ccc2c(c1)C(=O)N(C)[C@H]1CC[C@H](CC(=O)NCC3CCCCC3)O[C@@H]1CO2` — outcome?
Reply: -1

Query: Look up the recorded call for `O=C(CN1CCCc2ccccc21)NCc1ccc(F)cc1` in this test.
Reply: -1

Query: Each compound tested received a call. Report the one for COC(=O)C1CN(Cc2ccc(F)cc2)CCS(=O)(=O)N1Cc1ccc(Cl)cc1 (stereo not given) .
Reply: -1

Query: Record lookup: outcome of this test for COc1cccc(/C=C2\CC3(OC(C)=O)CCCN2C3)c1 (stereo not given) ?
Reply: -1

====

- protocol.notes: binders of r(CAG) RNA repeats, primary screen, biochemical, fluorescence (AID 651821);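 further: 0% = DMSO alone and 100% = 100 µM mitoxantrone as full dye displacement; higher means more dye released from RNA so lower well fluorescence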
- assay.setup: r(CAG) RNA repeat, TO-PRO-1 dye displacement fluorescence; at 3 µM; active compounds read high
About 4,700 (1.3%) of roughly 370,000 compounds were called active. Only a selection was taken, and actives are over-represented in it overall.
So I've got a bunch of compounds here, and I need their inhibition values.
Just the number in %, nothing appended.

Query: Supply recorded inhibition for NC(c1ccccc1)c1csc(NC(=O)Nc2cccc(C(F)(F)F)c2)n1 (stereo unspecified) here.
Reply: 42.2

Query: Query inhibition for `Cc1cc(C)cc(OCC(=O)Nc2ccc(N3CCOCC3)cc2N2CCOCC2)c1`
Reply: -4.13

Query: Identify measured inhibition corresponding to `CCOC(=O)c1csc(NC(=O)Nc2cccc(OC)c2)n1`
Reply: 61.3

Query: Check the records and state inhibition for `COc1cccc(NC(=O)COC(=O)c2ccc3ccccc3n2)c1`
Reply: 7.26

Query: In one line, give reported inhibition of the entry CC(=O)c1ccc(Nc2nc(C(N)c3ccccc3)cs2)cc1 (stereo unspecified) .
Reply: 6.98

Query: Supply reported inhibition belonging to this compound: `FC(F)(F)c1cccc(Cn2ccc3ccc(-c4ccc5ccn(Cc6ccccc6)c5c4)cc32)c1`
Reply: 11

Query: Indicate its recorded inhibition; the compound in question is `C/C(CC(=O)Nc1cccc(C(F)(F)F)c1)=N\NC(=O)C(=O)NCC(C)C`
Reply: -2.81

Query: Quick one: give measured inhibition for C#CCN([C@H](C(=O)OC)C(C)CC)S(=O)(=O)c1ccccc1Br (stereo partly specified)
Reply: -1.79

Query: Specify reported inhibition for the compound shown: `CCOC(=O)c1cnc(SCC(=O)Nc2cccc(OC)c2)nc1N`
Reply: 1.08

Query: Give inhibition for the following compound: NC(c1csc(NC(=O)Nc2ccccc2Oc2ccccc2)n1)c1ccccc1Cl (stereo unspecified)
Reply: 14

Query: Given the compound COc1ccc(CC(N)c2csc(NC(=O)Nc3ccc(C(C)C)cc3)n2)cc1 (stereo unspecified) , write its reported inhibition.
Reply: 30.9

====

- protocol.notes: binders of r(CAG) RNA repeats, primary screen, biochemical, fluorescence (AID 651821);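 further: 0% = DMSO alone and 100% = 100 µM mitoxantrone as full dye displacement; higher means more dye released from RNA so lower well fluorescence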
- assay.setup: r(CAG) RNA repeat, TO-PRO-1 dye displacement fluorescence; at 3 µM; active compounds read high
In all, about 370,000 compounds went through this assay and about 4,700 (1.3%) were called active. Only a selection was taken, and actives are over-represented in it overall.
measured.parameter: inhibition

Query: Fill in inhibition for record `CCc1nnc(NS(=O)(=O)c2ccc(N=Cc3c(C)[nH]n(-c4ccc(C)cc4)c3=O)cc2)s1`
Reply: 56.7% (active)

Query: Report inhibition for `Cc1oc2c(C)c3oc(=O)c(CC(=O)N[C@@H](CC(C)C)C(=O)N[C@@H](Cc4ccccc4)C(=O)O)c(C)c3cc2c1C`
Reply: 15.8% (inactive)

Query: Identify the reported inhibition for the following entry. `COc1cc(SC#N)ccc1N=Cc1c(C)[nH]n(-c2ccc(C)cc2)c1=O`
Reply: 6.39% (inactive)

Query: Query inhibition for `Cc1c(CCC(=O)N[C@@H](CC(C)C)C(=O)O)c(=O)oc2c(C)c3oc4c(c3cc12)CCCC4`
Reply: 38.4% (active)

Query: Quote inhibition reported for `CCc1nnc(NC(=O)CCN(c2ccc(C)cc2)S(=O)(=O)c2ccccc2)s1` please.
Reply: 1.09% (inactive)

Query: Please give measured inhibition of the following entry: `Cc1c(C)c2cc3c4c(oc3c(C)c2oc1=O)CCCC4`
Reply: 5.96% (inactive)

Query: Give me measured inhibition, please, for this compound: `Cc1c(CC(=O)NCC(=O)NCC(=O)O)c(=O)oc2cc3oc4c(c3cc12)CCCC4`
Reply: 11.3% (inactive)

Query: Using known records, supply inhibition for `CC[C@@H](C)[C@H](NC(=O)CCc1c(C)c2cc3c4c(oc3c(C)c2oc1=O)CCCC4)C(=O)O`
Reply: 36.8% (active)

Query: Note down inhibition recorded for `CSc1ccc(CN(C)CC(=O)NCc2ccc(F)cc2)cc1`
Reply: -7.36% (inactive)

====

- protocol.notes: binders of r(CAG) RNA repeats, primary screen, biochemical, fluorescence (AID 651821);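 further: 0% = DMSO alone and 100% = 100 µM mitoxantrone as full dye displacement; higher means more dye released from RNA so lower well fluorescence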
- assay.setup: r(CAG) RNA repeat, TO-PRO-1 dye displacement fluorescence; at 3 µM; active compounds read high
Out of some 370,000 compounds screened, about 4,700 (1.3%) were called active. Shown is part of a subset that was picked to be rich in actives.
Consider the following compounds; for each one, report its inhibition.
// note: answer is a bare numeric in %

Query: Please supply the value of reported inhibition for the item O=C(CCCCCN1C(=O)C2C3C=CC(C3)C2C1=O)Nc1ccccn1 (stereo not given)
Reply: 1.49

Query: Tell me inhibition reported for `O=C(NC1CCC1)c1ccc(C#Cc2cccc(F)c2)c[n+]1[O-]`
Reply: 1.31

Query: Fill in inhibition for record `O=C(NCCC1=CCCCC1)C1CCN(S(=O)(=O)c2ccc(Cl)s2)CC1`
Reply: 1

Query: Answer with the recorded inhibition of `COc1cccc(-c2coc3cc4oc(=O)c(CC(=O)O)c(C)c4cc23)c1` only.
Reply: 46.5

Query: Supply measured inhibition of CN1CCc2ccccc2C1Cc1ccccc1NC(=O)c1sc2ccccc2c1Cl (stereo not given) in your reply.
Reply: -0.7

Query: Identify measured inhibition associated with `CCCCCCc1cc2cc(-c3nnc(-c4cccc(OC)c4)o3)c(=O)oc2cc1O`
Reply: 0.83

Query: Please look at this compound and report its inhibition: COC(=O)C1=C(C)N(Cc2cccc(C(F)(F)F)c2)C(=NCc2ccccc2)NC1c1ccc(Cl)cc1 (stereo not given)
Reply: 6.45

Query: Return value of inhibition for input CC1CCCN(c2cccc3c2S(=O)(=O)N(Cc2ccc(F)cc2)[C@@H](C)[C@H](c2ccccc2)O3)C1 (stereo not given in full) , no commentary.
Reply: 1.44

Query: Identify the reported inhibition for the following entry. `CCOc1ccc2ccccc2c1/C=N/NC(=O)c1c(C)cc(C)[nH]c1=O`
Reply: 0.65

Query: Consider the compound `Cc1coc2cc3oc(=O)c(CCC(=O)O)c(C)c3cc12` . State its measured inhibition.
Reply: -1.41
